Collected sPAP HepG2 B6 assay: Expt 2 EC50 values appear next to each entry.
measurement_target: T1, gp130 on HepG2 B6 cells (UniProt P40189 23-918, limits assumed)
T1 sequence (looked up): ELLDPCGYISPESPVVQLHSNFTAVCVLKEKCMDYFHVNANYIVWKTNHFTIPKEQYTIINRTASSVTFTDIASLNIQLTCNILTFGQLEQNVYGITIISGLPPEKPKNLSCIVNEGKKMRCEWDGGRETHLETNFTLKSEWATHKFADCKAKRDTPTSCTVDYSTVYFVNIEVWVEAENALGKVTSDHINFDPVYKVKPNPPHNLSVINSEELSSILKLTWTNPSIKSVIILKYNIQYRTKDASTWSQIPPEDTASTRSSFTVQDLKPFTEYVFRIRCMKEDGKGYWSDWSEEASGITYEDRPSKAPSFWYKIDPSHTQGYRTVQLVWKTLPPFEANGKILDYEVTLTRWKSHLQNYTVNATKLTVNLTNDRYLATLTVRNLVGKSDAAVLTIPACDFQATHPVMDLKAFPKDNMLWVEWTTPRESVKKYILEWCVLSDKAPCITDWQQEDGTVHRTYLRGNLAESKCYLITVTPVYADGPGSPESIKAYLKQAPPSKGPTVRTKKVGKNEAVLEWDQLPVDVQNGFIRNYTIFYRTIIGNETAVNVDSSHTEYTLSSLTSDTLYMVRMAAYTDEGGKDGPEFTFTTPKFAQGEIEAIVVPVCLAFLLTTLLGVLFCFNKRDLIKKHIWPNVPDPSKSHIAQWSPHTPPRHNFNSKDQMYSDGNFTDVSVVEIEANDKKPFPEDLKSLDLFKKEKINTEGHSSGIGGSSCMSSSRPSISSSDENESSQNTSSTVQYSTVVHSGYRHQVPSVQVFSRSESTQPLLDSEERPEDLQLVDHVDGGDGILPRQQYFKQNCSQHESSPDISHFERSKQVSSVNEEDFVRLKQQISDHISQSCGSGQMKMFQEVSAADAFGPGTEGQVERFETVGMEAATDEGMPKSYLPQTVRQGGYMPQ
test_method_notes: cell-based or functional assay
endpoint_name: sPAP HepG2 B6 assay: Expt 2 EC50 (mg/L)

binder	unit_text	recorded_value
OSM-GST mutant N117A (ligand, not shown: a dimerising Fc or GST; large carriers; small tags and cut ends, Alanine mutant of m4; also called (18)N117A; 18 N117A) AAIGSCSKEYRVLLGQLQKQTDLMQDTSRLLDPYIRIQGLDVPKLREHCRERPGAFPSEETLRGLGRRGFLQTLNATLGCVLHRLADLEQRLPKAQDLERSGLNIEDLEKLQMARPAILGLRNNIYCMAQLLDNSDTAEPTKAGRGASQPPTPTPASDAFQRKLEGCRFLHGYHRFMHSVGRVFSKWGESPNRSRR	mg/L	0.0425
OSM-GST mutant D22A (ligand, not shown: a dimerising Fc or GST; large carriers; small tags and cut ends, Alanine mutant of m4; also called (15)D22; 15 D22) AAIGSCSKEYRVLLGQLQKQTALMQDTSRLLDPYIRIQGLDVPKLREHCRERPGAFPSEETLRGLGRRGFLQTLNATLGCVLHRLADLEQRLPKAQDLERSGLNIEDLEKLQMARPNILGLRNNIYCMAQLLDNSDTAEPTKAGRGASQPPTPTPASDAFQRKLEGCRFLHGYHRFMHSVGRVFSKWGESPNRSRR	mg/L	0.016
OSM-GST mutant P116A (ligand, not shown: a dimerising Fc or GST; large carriers; small tags and cut ends, Alanine mutant of m4; also called (17)P116A; 17 P116A) AAIGSCSKEYRVLLGQLQKQTDLMQDTSRLLDPYIRIQGLDVPKLREHCRERPGAFPSEETLRGLGRRGFLQTLNATLGCVLHRLADLEQRLPKAQDLERSGLNIEDLEKLQMARANILGLRNNIYCMAQLLDNSDTAEPTKAGRGASQPPTPTPASDAFQRKLEGCRFLHGYHRFMHSVGRVFSKWGESPNRSRR	mg/L	0.015
